- procedure.summary: GAPDH and PEG-3 promoter luciferase suppression – cell-based, luminescence, set 2, counter-screen for PEG-3 promoter inhibitor project, dose response (AID 651549)
- assay.setup: HeLa PEG-Prom-luciferase or GAPDH-reporter, 6/24 h, PEG-3, run 1, 6 h
The source made the active and inactive calls.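 Rule for the calls: active = compounds blocking the PEG3 reporter with IC50 up to 10 µM at either incubation, yet sparing the GAPDH control reporter; inactive = the rest.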
The reply should name one outcome from 1 (yes) for active, 0 (no) for inactive

compound	cat
CS(=O)(=O)c1ccc(-c2cn3cc(C(=O)O)ccc3n2)cc1	0 (no)
CS(=O)(=O)Nc1cccc(NC(=O)C2Cc3c(-c4ccccc4)ccnc3O2)c1 (stereo unspecified)	0 (no)
CCn1cc(C(=O)NCc2ccco2)c(=O)c2cc(S(=O)(=O)N3CC(C)CC(C)C3)ccc21 (stereo unspecified)	0 (no)
CN1OC[C@@H]2CN(S(=O)(=O)c3cccc(C(F)(F)F)c3)[C@H](c3ccc(-c4cc5ccccc5o4)cc3)C[C@@H]21	0 (no)
Nc1ncn([C@@H]2O[C@H](CO)[C@@H](O)[C@H]2O)c(=O)n1	0 (no)

Could you please tell me the result logged for O=C(Nc1ccccc1C(=O)Nc1nnc(C(F)(F)F)s1)c1ccccc1 in this assay?
0 (no)

Lookup CCC1(O)C(=O)OCc2c1cc1n(c2=O)Cc2cc3cc(O)ccc3nc2-1 (stereo unspecified)
1 (yes)

Lookup Cc1cccc(-n2cc(-c3ccccc3)c3c(N4CCOCC4)ncnc32)c1
0 (no)

Lookup COC(=O)C1=C(CN2CCCc3ccccc32)NC(=O)NC1c1ccc(F)cc1 (stereo unspecified)
1 (yes)

Lookup Cc1cc(C)c(C)c(S(=O)(=O)N2CCN(C(=O)c3cc(=O)[nH]c4ccccc34)CC2)c1C
0 (no)

Lookup COc1ccc(C(=O)Nc2ccc(C)cn2)c(OC)c1
1 (yes)

* * *

- procedure.summary: GAPDH and PEG-3 promoter luciferase suppression – cell-based, luminescence, set 2, counter-screen for PEG-3 promoter inhibitor project, dose response (AID 651549)
- assay.setup: HeLa PEG-Prom-luciferase or GAPDH-reporter, 6/24 h, PEG-3, run 1, 6 h
Activity calls are given as the source filed them.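 The calls were made as follows: active = compounds blocking the PEG3 reporter with IC50 up to 10 µM at either incubation, yet sparing the GAPDH control reporter; inactive = the rest.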
The reply should name one outcome from active, inactive

compound	cat
CC1CC(C)C(=O)C(C(CC2CC(=O)NC(=O)C2)OC(=O)CC(=O)c2ccccc2)C1 (stereo not given)	active
C=CCn1c(C)cc(C(=O)COc2ccc(C)nc2[N+](=O)[O-])c1C	active
Cc1c(/C(O)=C2/C(=O)C(=O)N(Cc3cccnc3)C2c2ccccn2)cnn1-c1ccccc1 (stereo not given)	active
O=C(NCC1CCCO1)C(c1ccc(F)cc1)N(C(=O)Cn1nnc(-c2ccc(F)cc2)n1)c1cccc(O)c1 (stereo not given)	inactive
CC(=O)c1cccc(-c2ccnc3c2CC(C(=O)Nc2cccc(NS(C)(=O)=O)c2)O3)c1 (stereo not given)	inactive

Could you please tell me the result logged for CCCCCCCn1c(=N)n(CC(=O)c2ccco2)c2ccccc21 in this assay?
inactive

Lookup CS(=O)(=O)c1ccc(-c2sc3ccccc3c2C#CCCO)cc1
inactive

Lookup CCOC(=O)c1ccc2nc(Nc3nc4ccc(F)cc4s3)sc2c1
active

Lookup Cc1ccc2nc(NC(=O)CSCC(=O)OCC(=O)c3ccc(Br)cc3)sc2c1
inactive

Lookup CCOc1ccc(-n2cc(-c3ccccc3)c3c(N4CCOCC4)ncnc32)cc1
inactive

Lookup COC(=O)c1ccc2nc(Nc3nc4ccc(F)cc4s3)sc2c1
active

Lookup Cc1ccc(-c2cn3nc(C)c(C)nc3n2)cc1
inactive

Lookup NC(=O)c1cc([N+](=O)[O-])ccc1NCc1ccc(N)cc1
inactive

Lookup CN1CCC2(CC1)N=C(c1ccc(F)cc1)C(=S)N2C(=O)c1ccc(C(C)(C)C)cc1
inactive

Lookup COC1CC(C)C(OC)c2cc(O)cc(c2O)NC(=O)C(C)=CC=CC(C)C(OC(N)=O)C(C)=CC(C)C1OC (stereo not given)
inactive
